- study target: Nitric oxide synthase, inducible (Homo sapiens)
- Sequence (P35228 whole entry): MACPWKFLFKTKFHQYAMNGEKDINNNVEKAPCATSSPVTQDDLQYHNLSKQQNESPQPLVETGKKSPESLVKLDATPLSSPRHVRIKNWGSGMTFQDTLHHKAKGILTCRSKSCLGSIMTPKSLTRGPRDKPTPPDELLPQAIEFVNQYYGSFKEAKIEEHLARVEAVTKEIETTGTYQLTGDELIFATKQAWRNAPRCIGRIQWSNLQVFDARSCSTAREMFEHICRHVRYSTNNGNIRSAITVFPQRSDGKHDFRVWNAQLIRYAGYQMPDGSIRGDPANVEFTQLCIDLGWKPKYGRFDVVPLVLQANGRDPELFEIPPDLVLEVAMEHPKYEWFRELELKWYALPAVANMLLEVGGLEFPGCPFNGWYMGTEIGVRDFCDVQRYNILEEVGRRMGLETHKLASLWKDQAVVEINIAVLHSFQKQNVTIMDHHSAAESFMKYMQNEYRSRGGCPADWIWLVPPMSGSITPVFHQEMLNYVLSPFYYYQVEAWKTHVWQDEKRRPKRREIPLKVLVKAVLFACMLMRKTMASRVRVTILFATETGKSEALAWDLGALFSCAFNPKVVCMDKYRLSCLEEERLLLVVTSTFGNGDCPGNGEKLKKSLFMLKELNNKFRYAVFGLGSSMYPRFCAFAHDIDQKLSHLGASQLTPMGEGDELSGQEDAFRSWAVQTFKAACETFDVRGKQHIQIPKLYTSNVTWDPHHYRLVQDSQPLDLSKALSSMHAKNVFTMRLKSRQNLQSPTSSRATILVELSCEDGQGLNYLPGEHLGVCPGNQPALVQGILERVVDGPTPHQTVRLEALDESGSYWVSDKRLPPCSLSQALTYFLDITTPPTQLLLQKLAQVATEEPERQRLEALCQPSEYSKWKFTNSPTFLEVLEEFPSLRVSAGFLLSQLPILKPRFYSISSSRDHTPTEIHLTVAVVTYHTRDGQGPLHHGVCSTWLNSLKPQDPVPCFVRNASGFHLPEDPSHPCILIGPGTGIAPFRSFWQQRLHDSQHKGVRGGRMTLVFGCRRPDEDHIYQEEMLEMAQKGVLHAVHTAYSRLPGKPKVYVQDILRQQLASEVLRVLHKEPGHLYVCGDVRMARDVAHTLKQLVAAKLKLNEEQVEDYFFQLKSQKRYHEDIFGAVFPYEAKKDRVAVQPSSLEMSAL

{"smiles structure": "Cc1ncsc1C(=O)N(Cc1cc(=O)[nH]c2c(F)cccc12)c1cccc(Cl)c1", "IC50": "11 nM"}

====

- test: Half life in mouse at 3 mg/kg, iv and 10 mg/kg, po
- experimental context: in vivo
Values of half-life strictly less than 2 h map to Fulfilled, and values of at least 2 h map to Not fulfilled.

{"smiles structure": "CC(C)Cc1nc2nccnc2n1Cc1cc(=O)[nH]c2c(F)c(F)ccc12", "discrete label": "Not fulfilled"}
{"smiles structure": "O=c1cc(Cn2c(C3CC(F)(F)C3)nc3nccnc32)c2cccc(F)c2[nH]1", "discrete label": "Not fulfilled"}
{"smiles structure": "O=c1cc(Cn2c(C3CCC3)nc3nccnc32)c2cccc(F)c2[nH]1", "discrete label": "Fulfilled"}
{"smiles structure": "O=c1cc(Cn2c(C3CCC3)nc3nccnc32)c2ccc(F)c(F)c2[nH]1", "discrete label": "Not fulfilled"}
{"smiles structure": "Cc1ncsc1-c1nc2ccccc2n1Cc1cc(=O)[nH]c2c(F)c(F)ccc12", "discrete label": "Not fulfilled"}
{"smiles structure": "CC(C)Cc1nc2ccccc2n1Cc1cc(=O)[nH]c2c(F)c(F)ccc12", "discrete label": "Fulfilled"}
{"smiles structure": "CC(C)c1nc2ccccc2n1Cc1cc(=O)[nH]c2c(F)c(F)ccc12", "discrete label": "Not fulfilled"}

====

Reported pEC50 is given for each of the following molecules.
- study target: Cytochrome P450 2C19 (Homo sapiens)
- Sequence (P33261 whole entry): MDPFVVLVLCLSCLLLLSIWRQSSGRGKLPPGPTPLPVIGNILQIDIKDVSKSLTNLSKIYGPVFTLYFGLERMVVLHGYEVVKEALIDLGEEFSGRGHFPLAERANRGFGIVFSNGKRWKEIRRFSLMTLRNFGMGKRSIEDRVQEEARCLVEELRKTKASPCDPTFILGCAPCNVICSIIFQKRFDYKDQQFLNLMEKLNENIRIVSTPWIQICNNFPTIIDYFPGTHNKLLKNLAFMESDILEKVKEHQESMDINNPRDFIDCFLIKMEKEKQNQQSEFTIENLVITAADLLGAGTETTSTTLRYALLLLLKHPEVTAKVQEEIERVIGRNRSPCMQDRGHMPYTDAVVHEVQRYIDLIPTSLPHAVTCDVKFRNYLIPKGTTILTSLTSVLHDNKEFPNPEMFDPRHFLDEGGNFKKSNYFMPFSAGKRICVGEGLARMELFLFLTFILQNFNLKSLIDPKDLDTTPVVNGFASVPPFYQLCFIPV
- test: Inhibition of human CYP2C19
- Format: ADME
pEC50: −log10 of the molar value.

{"smiles structure": "O=c1cc(Cn2c(C3CCC3)nc3nccnc32)c2ccc(F)c(F)c2[nH]1", "study target": "Cytochrome P450 2C19 (Homo sapiens)", "pEC50": "< 4.42"}
{"smiles structure": "CC(C)Cc1nc2nccnc2n1Cc1cc(=O)[nH]c2c(F)c(F)ccc12", "study target": "Cytochrome P450 2C19 (Homo sapiens)", "pEC50": "< 4.22"}
{"smiles structure": "O=c1cc(Cn2c(C3CCC3)nc3nccnc32)c2cccc(F)c2[nH]1", "study target": "Cytochrome P450 2C19 (Homo sapiens)", "pEC50": "< 4.22"}
{"smiles structure": "O=c1cc(Cn2c(C3CC(F)(F)C3)nc3nccnc32)c2cccc(F)c2[nH]1", "study target": "Cytochrome P450 2C19 (Homo sapiens)", "pEC50": 4.57}

====

- Species: Homo sapiens
- test: Ratio of IC50 for human eNOS to EC50 for human iNOS

{"smiles structure": "O=c1cc(Cn2c(C3CC(F)(F)C3)nc3nccnc32)c2ccc(F)c(F)c2[nH]1", "censoring qualifier": "=", "Ratio EC50": 77}
{"smiles structure": "O=c1cc(Cn2c(C3CCC3)nc3cccnc32)c2ccc(F)c(F)c2[nH]1", "censoring qualifier": ">", "Ratio EC50": 560}
{"smiles structure": "CC(C)Cc1nc2ccccc2n1Cc1cc(=O)[nH]c2c(F)c(F)ccc12", "censoring qualifier": ">", "Ratio EC50": 263}
{"smiles structure": "CCc1nc2ccccc2n1Cc1cc(=O)[nH]c2c(F)c(F)ccc12", "censoring qualifier": "=", "Ratio EC50": 0.4}
{"smiles structure": "O=c1cc(Cn2c(C3CC(F)(F)C3)nc3nccnc32)c2cccc(F)c2[nH]1", "censoring qualifier": ">", "Ratio EC50": 460}
{"smiles structure": "CC(C)Cc1nc2nccnc2n1Cc1cc(=O)[nH]c2c(F)c(F)ccc12", "censoring qualifier": "=", "Ratio EC50": 440}
{"smiles structure": "O=c1cc(Cn2c(C3CCC3)nc3c(C(F)(F)F)ccnc32)c2ccc(F)c(F)c2[nH]1", "censoring qualifier": ">", "Ratio EC50": 670}
{"smiles structure": "O=c1cc(Cn2c(-c3cncs3)nc3ccccc32)c2ccc(F)c(F)c2[nH]1", "censoring qualifier": ">", "Ratio EC50": 12}
{"smiles structure": "O=c1cc(Cn2c(-c3ccncc3)nc3ccccc32)c2ccc(F)c(F)c2[nH]1", "censoring qualifier": "=", "Ratio EC50": 1.9}

Provenance of the data: ChEMBL document CHEMBL1800057
